The reported numbers originate from patent US20040127518A1.

Target: UniProtKB P97612
Sequence (P97612 1-579): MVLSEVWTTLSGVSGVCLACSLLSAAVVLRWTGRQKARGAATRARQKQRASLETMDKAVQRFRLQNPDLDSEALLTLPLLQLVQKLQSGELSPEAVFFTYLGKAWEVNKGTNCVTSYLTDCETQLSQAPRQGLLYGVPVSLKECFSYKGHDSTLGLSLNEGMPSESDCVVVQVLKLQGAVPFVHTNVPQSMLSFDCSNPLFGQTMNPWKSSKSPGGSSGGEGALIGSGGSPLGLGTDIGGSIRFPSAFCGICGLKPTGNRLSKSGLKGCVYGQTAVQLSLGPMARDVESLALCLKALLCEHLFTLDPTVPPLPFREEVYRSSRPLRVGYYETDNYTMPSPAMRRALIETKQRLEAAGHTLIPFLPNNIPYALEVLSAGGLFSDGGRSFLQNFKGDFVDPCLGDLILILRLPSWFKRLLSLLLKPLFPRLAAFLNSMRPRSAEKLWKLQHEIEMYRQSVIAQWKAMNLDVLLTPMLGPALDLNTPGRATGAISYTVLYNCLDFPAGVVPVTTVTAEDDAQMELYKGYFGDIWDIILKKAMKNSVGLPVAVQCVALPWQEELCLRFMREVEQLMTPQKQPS
Assay: biochemical
Format: biochemical
Parameters: from tissue; host or cells: rat brain (membrane fraction of homogenate; Wistar rats)
Conditions: Table 4; FAAH IC50; read-out: Inhibition of Amidohydrolase IC50
Test readout: IC50

These solved cases illustrate the format of a correct answer.
- Cpd smiles: "NC(=O)c1ccc(-c2cccc(OC(=O)NC3CCCCC3)c2)cc1"
  IC50: "> 10 µM"
- Cpd smiles: "CC(C)(C)NC(=O)Oc1ccc(-c2ccccc2)cc1Cl"
  IC50: "> 30 µM"
- Cpd smiles: "O=C(Nc1cccc2ccccc12)NC1CCCCC1"
  IC50: "> 30 µM"

Pending compound:
Give reported IC50 for O=C(NC1CCCCC1)Oc1ccc([N+](=O)[O-])c(-c2ccccc2)c1 (UniProtKB P97612)
> 30 µM

* * *

The reader will find reported IC50 values listed item by item below.
Target: UniProt:P97612
Sequence (P97612 1-579): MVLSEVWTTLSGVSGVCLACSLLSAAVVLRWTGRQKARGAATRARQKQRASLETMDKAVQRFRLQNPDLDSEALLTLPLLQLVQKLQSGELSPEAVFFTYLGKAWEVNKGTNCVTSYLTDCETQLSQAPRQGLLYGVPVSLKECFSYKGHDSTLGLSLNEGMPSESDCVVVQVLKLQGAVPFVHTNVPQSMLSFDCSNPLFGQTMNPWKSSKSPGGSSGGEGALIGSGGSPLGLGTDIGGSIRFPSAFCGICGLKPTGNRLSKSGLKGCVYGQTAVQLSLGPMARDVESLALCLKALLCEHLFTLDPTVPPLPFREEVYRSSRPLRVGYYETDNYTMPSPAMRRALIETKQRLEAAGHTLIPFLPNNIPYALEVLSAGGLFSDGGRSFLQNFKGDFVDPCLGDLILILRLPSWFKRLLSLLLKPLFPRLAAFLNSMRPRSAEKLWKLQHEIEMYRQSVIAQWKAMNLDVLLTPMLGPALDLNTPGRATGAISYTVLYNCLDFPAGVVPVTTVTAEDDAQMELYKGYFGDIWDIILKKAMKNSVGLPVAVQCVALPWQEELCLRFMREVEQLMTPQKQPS
Experiment: biochemical
Format: biochemical
Set-up: from tissue; host or cells: rat brain (membrane fraction of homogenate; Wistar rats)
Conditions: IC50 (nM) ± S.E.M.
Entry rule: numbers only, all in nM.

These solved cases illustrate the format of a correct answer.
- Cpd smiles: "O=C(NC1CCCCC1)Oc1cccc(-c2ccc(C(F)(F)F)cc2)c1"
  IC50 [nM]: 1590
- Cpd smiles: "CCCc1cccc(-c2cccc(OC(=O)NC3CCCCC3)c2)c1"
  IC50 [nM]: 110
- Cpd smiles: "O=C(NC1CCCCC1)Oc1cccc(-c2cccc(O)c2)c1"
  IC50 [nM]: 8.65

Pending compound:
Give reported IC50 for O=C(NC(=O)c1ccc(-c2cccc(OC(=O)NC3CCCCC3)c2)cc1)NC1CCCCC1 (UniProt:P97612)
3020
